- Test system: 889142-216-R-J1-PDC complex spheroid viability
- Procedure Details: Anticancer human tumor 889142-216-R-J1-PDC patient-derived bladder carcinoma cell line growth inhibition [POLQ]
- Assay Setup: second compound 1 µM; first compound 0.1 µM; stronger effect = lower value
Readout Type: viability, T/C (%)
Response body: numeric value in %, unit text excluded.

Task: Given the entry CC[C@@]1(O)C(=O)OCc2c1cc1n(c2=O)Cc2cc3c(CN(C)C)c(O)ccc3nc2-1 + Cc1cccc(N(C)C(=O)C2C(O)CCN2c2nc(C)cc(C(F)(F)F)c2C#N)c1 , report its measured viability, T/C.
Output: 61.2

Task: Given the entry CCc1cc2c(N3CCc4c(cc(Cn5ccnc5)cc4-c4cn(C)nc4C(F)(F)F)C3=O)cc(C)nc2c(OC)n1 + COC1C(OC(N)=O)C(O)C(Oc2ccc3c(O)c(NC(=O)c4ccc(O)c(CC=C(C)C)c4)c(=O)oc3c2C)OC1(C)C , report its measured viability, T/C.
Output: 123

Task: Given the entry C=CC(=O)N1CCN(c2nc(=O)n(-c3c(C)ccnc3C(C)C)c3nc(-c4c(O)cccc4F)c(F)cc23)C(C)C1 (stereo not drawn) + COC1C(OC(N)=O)C(O)C(Oc2ccc3c(O)c(NC(=O)c4ccc(O)c(CC=C(C)C)c4)c(=O)oc3c2C)OC1(C)C , report its measured viability, T/C.
Output: 123

* * *

- Tested on: 889142-216-R-J1-PDC complex spheroid viability
- Procedure Details: Anticancer human tumor 889142-216-R-J1-PDC cell line growth inhibition [POLQ];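 note: spheroids exposed to compounds for seven days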
- Assay Setup: curve of first compound; second compound 0.316 µM
pIC50: −log10 of the molar value.
I'd be grateful if you could share measured pIC50 for these entries.

Task: Given the entry CCc1cc2c(N3CCc4c(cc(Cn5ccnc5)cc4-c4cn(C)nc4C(F)(F)F)C3=O)ccnc2c(OC)n1 + COC1C(OC(N)=O)C(O)C(Oc2ccc3c(O)c(NC(=O)c4ccc(O)c(CC=C(C)C)c4)c(=O)oc3c2C)OC1(C)C , report its measured pIC50.
Output: < 5.00

Task: Given the entry O=C(Nc1ccc(O)c(NS(=O)(=O)c2ccc(F)cc2)c1)c1ccc(-c2ccccc2)cc1 + COC1C(OC(N)=O)C(O)C(Oc2ccc3c(O)c(NC(=O)c4ccc(O)c(CC=C(C)C)c4)c(=O)oc3c2C)OC1(C)C , report its measured pIC50.
Output: < 5.00

Task: Given the entry CC1COCCN1c1cc(-c2ccnn2C)c2ccnc(-c3ccn[nH]3)c2n1 (centres undefined) + Nc1ccc(C#CCN(C(=O)Cc2ncc(C(F)(F)F)cc2C(F)(F)F)c2ccc(F)cc2)nn1 , report its measured pIC50.
Output: 6.46

Task: Given the entry CC(C)n1c(=O)n(C)c2cnc3cc(F)c(-c4ccc(OCCCN5CCCCC5)nc4)cc3c21 + COC1C(OC(N)=O)C(O)C(Oc2ccc3c(O)c(NC(=O)c4ccc(O)c(CC=C(C)C)c4)c(=O)oc3c2C)OC1(C)C , report its measured pIC50.
Output: < 5.00

Task: Given the entry CC(C)n1c(=O)n(C)c2cnc3cc(F)c(-c4ccc(OCCCN5CCCCC5)nc4)cc3c21 + Cc1cccc(N(C)C(=O)C2C(O)CCN2c2nc(C)cc(C(F)(F)F)c2C#N)c1 , report its measured pIC50.
Output: 5.43

Task: Given the entry CC(=O)O[C@H]1C(=O)[C@@]2(C)[C@H]([C@H](OC(=O)c3ccccc3)[C@]3(O)C[C@H](OC(=O)[C@H](O)[C@@H](NC(=O)c4ccccc4)c4ccccc4)C(C)=C1C3(C)C)[C@]1(OC(C)=O)CO[C@@H]1C[C@@H]2O + Cc1cccc(N(C)C(=O)C2C(O)CCN2c2nc(C)cc(C(F)(F)F)c2C#N)c1 , report its measured pIC50.
Output: < 5.52

Task: Given the entry CCCS(=O)(=O)Nc1ccc(F)c(C(=O)c2c[nH]c3ncc(-c4ccc(Cl)cc4)cc23)c1F + Nc1ccc(C#CCN(C(=O)Cc2ncc(C(F)(F)F)cc2C(F)(F)F)c2ccc(F)cc2)nn1 , report its measured pIC50.
Output: 5.12

Task: Given the entry CC1COCCN1c1cc(C2(S(C)(=N)=O)CC2)nc(-c2ccnc3[nH]ccc23)n1 (centres undefined) + COC1C(OC(N)=O)C(O)C(Oc2ccc3c(O)c(NC(=O)c4ccc(O)c(CC=C(C)C)c4)c(=O)oc3c2C)OC1(C)C , report its measured pIC50.
Output: 6.00

Task: Given the entry COc1ccc([C@@H](O)c2cc(-c3ncnc4cc(N5CCOCC5)ccc34)c(F)cc2Cl)nn1 + COC1C(OC(N)=O)C(O)C(Oc2ccc3c(O)c(NC(=O)c4ccc(O)c(CC=C(C)C)c4)c(=O)oc3c2C)OC1(C)C , report its measured pIC50.
Output: 5.20

Task: Given the entry CNCc1ccc(-c2[nH]c3cc(F)cc4c3c2CCNC4=O)cc1 + Nc1ccc(C#CCN(C(=O)Cc2ncc(C(F)(F)F)cc2C(F)(F)F)c2ccc(F)cc2)nn1 , report its measured pIC50.
Output: < 5.00

Task: Given the entry COc1cc2cc(C(=O)CCC(=O)O)sc2cc1OC + COC1C(OC(N)=O)C(O)C(Oc2ccc3c(O)c(NC(=O)c4ccc(O)c(CC=C(C)C)c4)c(=O)oc3c2C)OC1(C)C , report its measured pIC50.
Output: < 5.00

Task: Given the entry O=c1[nH]cc(F)c(=O)[nH]1 + COC1C(OC(N)=O)C(O)C(Oc2ccc3c(O)c(NC(=O)c4ccc(O)c(CC=C(C)C)c4)c(=O)oc3c2C)OC1(C)C , report its measured pIC50.
Output: < 5.00

Task: Given the entry COc1cc(C2c3cc4c(cc3C(OC3OC5COC(C)OC5C(O)C3O)C3COC(=O)C23)OCO4)cc(OC)c1O (centres undefined) + COC1C(OC(N)=O)C(O)C(Oc2ccc3c(O)c(NC(=O)c4ccc(O)c(CC=C(C)C)c4)c(=O)oc3c2C)OC1(C)C , report its measured pIC50.
Output: < 5.00

Task: Given the entry COc1cc2cc(C(=O)CCC(=O)O)sc2cc1OC + Nc1ccc(C#CCN(C(=O)Cc2ncc(C(F)(F)F)cc2C(F)(F)F)c2ccc(F)cc2)nn1 , report its measured pIC50.
Output: < 5.00

Task: Given the entry C#Cc1c(F)ccc2cc(O)cc(-c3ncc4c(N5CC6CCC(C5)N6)nc(OCC56CCCN5CC(F)C6)nc4c3F)c12 (centres undefined) + Nc1ccc(C#CCN(C(=O)Cc2ncc(C(F)(F)F)cc2C(F)(F)F)c2ccc(F)cc2)nn1 , report its measured pIC50.
Output: < 5.00

Task: Given the entry CC(=O)O[C@H]1C(=O)[C@@]2(C)[C@H]([C@H](OC(=O)c3ccccc3)[C@]3(O)C[C@H](OC(=O)[C@H](O)[C@@H](NC(=O)c4ccccc4)c4ccccc4)C(C)=C1C3(C)C)[C@]1(OC(C)=O)CO[C@@H]1C[C@@H]2O + Nc1ccc(C#CCN(C(=O)Cc2ncc(C(F)(F)F)cc2C(F)(F)F)c2ccc(F)cc2)nn1 , report its measured pIC50.
Output: < 5.52

Task: Given the entry CC(C)n1c(=O)n(C)c2cnc3cc(F)c(-c4ccc(OCCCN5CCCCC5)nc4)cc3c21 + Nc1ccc(C#CCN(C(=O)Cc2ncc(C(F)(F)F)cc2C(F)(F)F)c2ccc(F)cc2)nn1 , report its measured pIC50.
Output: < 5.00

Task: Given the entry COc1cc(C2c3cc4c(cc3C(OC3OC5COC(C)OC5C(O)C3O)C3COC(=O)C23)OCO4)cc(OC)c1O (centres undefined) + Nc1ccc(C#CCN(C(=O)Cc2ncc(C(F)(F)F)cc2C(F)(F)F)c2ccc(F)cc2)nn1 , report its measured pIC50.
Output: < 5.00

Task: Given the entry CC1COCCN1c1cc(C2(S(C)(=N)=O)CC2)nc(-c2ccnc3[nH]ccc23)n1 (centres undefined) + Nc1ccc(C#CCN(C(=O)Cc2ncc(C(F)(F)F)cc2C(F)(F)F)c2ccc(F)cc2)nn1 , report its measured pIC50.
Output: < 5.00
